Experiment description: folding stability dG unfold (combined trypsin and chymotrypsin); higher = more stable
Catalogue of sequences with associated folding stability dG unfold

[
  {
    "Residue string": "SAGGSAGGSAGGMLVRIPRGDKGFVLEIETDGVRTVEEFDGTEEEIREYAEKNGFEILESAGGSAGGSAGGS [r10_506_JUSTAS]",
    "folding stability dG unfold": "0.892 kcal/mol"
  },
  {
    "Residue string": "SAGGSAGGMVEHVVTVPPSQVEEVIEEAKPKPVVEVKVEKVPGRDEVVVTMKYEIPEEELLKKLSAGGSAGG [r6_273_JUSTAS]",
    "folding stability dG unfold": "< -1 kcal/mol"
  },
  {
    "Residue string": "SAGGSAGGSAGGTAEEIKEAIEELGYKVEVEVTDDAVKIRLELPNGEKFEFEIPKEALESAGGSAGGSAGGS [r10_1029_TrMRF]",
    "folding stability dG unfold": "1.99 kcal/mol"
  },
  {
    "Residue string": "SAGGSGIEAAILEAVEKGLNPVELTFRLPEDGKLVVLKVEVLDVLDGGAIVKVEMEVYDPENPKKISAGGSA [r2_420_TrMRF]",
    "folding stability dG unfold": "1.83 kcal/mol"
  },
  {
    "Residue string": "SYIKIPFNVWMPPDNAEAMAEEFANNLAQKHGWKIKGIKPVEPVPSPDGEWYPFRVSITIRMPDPEAINASA [r9_302_TrROS]",
    "folding stability dG unfold": "1.82 kcal/mol"
  },
  {
    "Residue string": "SAGGKLLEELNVEKVEVVEVKEFSLPPLPLLVLLPTVTVTFKDGSKVKFKVLFLYDPSNPKPIVVAGSAGGS [r8_422_TrMRF]",
    "folding stability dG unfold": "3.07 kcal/mol"
  },
  {
    "Residue string": "SAGGKEKYKIKIYNKKTGKEYEFEIPLDEIVKYDKKNKKIYIKLKNGKKLEFKSLEDIVKIEIEKLPSAGGS [r8_111_TrROS_Hall]",
    "folding stability dG unfold": "3.14 kcal/mol"
  },
  {
    "Residue string": "SSTTPYGDKTVVTTTTPVPGAGKELVTTTTYTFTPDPNSASTSTTATTTTTVTPLPEEAPTPEAVALRRASA [r9_363_JUSTAS]",
    "folding stability dG unfold": "< -1 kcal/mol"
  },
  {
    "Residue string": "MKTITITVTDAPPGTVTIRVEIEREDGSTIEIEKEITVKPGDTITITLKEDEPYKIKKIEIYHNGKKIEITS [r1_70_TrROS_Hall]",
    "folding stability dG unfold": "3.76 kcal/mol"
  },
  {
    "Residue string": "SAGMLNIPVDTPEKLLEIVKKLPGPVVVRSTSGTTVTVASLEELKEIAERGVPVELLLPEELPAEERAASAG [r5_677_JUSTAS]",
    "folding stability dG unfold": "0.576 kcal/mol"
  },
  {
    "Residue string": "SLKPGETKTLTLLIRTKDPEKTAEELAEEARKEIEELLPPGVKIEVKVTSVEPLPETGEVDVTVEVTVTASA [r9_706_TrMRF]",
    "folding stability dG unfold": "2.97 kcal/mol"
  },
  {
    "Residue string": "SAGPLPEDVAAGKPVDVEAPIPLRRKDGDLLAVFPITGPMTVKELLEVLEAIRERARELDLPPVEDLDRSAG [r5_606_TrMRF]",
    "folding stability dG unfold": "0.181 kcal/mol"
  },
  {
    "Residue string": "SAGGSAGGSAGGMVVRITTKDGRTITFPPGTSLEELRSLPADEITRVEVVEVEPVRVVEPSAGGSAGGSAGG [r7_190_TrROS_Hall]",
    "folding stability dG unfold": "1.75 kcal/mol"
  },
  {
    "Residue string": "SEALEKAAEAGVKTIYVYVKPGDLEEIKRLKALDVKIVLYATEEIPPEAFEALPGVKVEKVEWISPEELPSA [r9_671_TrMRF]",
    "folding stability dG unfold": "1.65 kcal/mol"
  },
  {
    "Residue string": "SAGGSAGGSAGGTAEIYFPNFPIRIDSVQLSPEKNHVQVSMENPDGPPVKGTMPPKDGILSAGGSAGGSAGG [r7_427_TrROS]",
    "folding stability dG unfold": "0.903 kcal/mol"
  },
  {
    "Residue string": "SAGGSAGGSAGGKDVRITVSPNNMRISIWKRDPNDGKWKPIGTIPMPPNDPDKALDQLKSAGGSAGGSAGGS [r10_275_TrROS]",
    "folding stability dG unfold": "-0.446 kcal/mol"
  },
  {
    "Residue string": "SAGGSAGGSAGMTITLPNGAEITSIEINEDGTITITVRVNGKTLTLTITVTLPPPPPEEPSAGGSAGGSAGG [r17_421_TrROS_Hall]",
    "folding stability dG unfold": "3.69 kcal/mol"
  },
  {
    "Residue string": "SGMDTVTPTTSTTQYFVEPNPEPVLSISTTTDTTTDPANPGVVTVTTTTTITDPRTGTTTTTPTTTTVPASA [r9_342_JUSTAS]",
    "folding stability dG unfold": "-0.146 kcal/mol"
  },
  {
    "Residue string": "SAGGSMITFTVTPDATVEFPDGVTVTLIPGEGKWVATAGEKEIEAPYTPLPDDTYVVTLELPEGIAASAGGS [r16_245_JUSTAS]",
    "folding stability dG unfold": "0.369 kcal/mol"
  },
  {
    "Residue string": "GENVPPKTVTVSAPVDPTTGRVTVNPGNTTVSISLPDGADVTLSFSTSMSEEEQLAFVEKEAAALNAALAAS [r1_25_JUSTAS]",
    "folding stability dG unfold": "1.18 kcal/mol"
  }
]

The reported numbers originate from the supplement of paper PMC12764529.
